- target under test: huPD1 (human) (UniProt Q15116)
- Sequence (Q15116 25-170 limits assumed): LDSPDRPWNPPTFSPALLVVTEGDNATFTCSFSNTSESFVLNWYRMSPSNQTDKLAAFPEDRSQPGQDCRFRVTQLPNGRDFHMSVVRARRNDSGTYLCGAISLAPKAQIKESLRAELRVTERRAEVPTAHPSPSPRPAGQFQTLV
- protocol description: biosensor kinetics (BLI type); antibody captured on anti-human Fc biosensor, PD-1 in solution
Here the recorded log10 of kon is given for each entry.
Hey, these are logged values: log10 of kon, M⁻¹ s⁻¹ being the unit before logging.

Example entries begin here.
[[record]]
binder = "TA289 (antibody, V domains shown, Fc SEQ 587, CL SEQ 416) VH: QVTLKESGPGILQPSQTLSLTCSFSGFSLSTFGMGVGWIRQPSGKGLEWLAHIWWDDDKYYNPALKSRLTISKDTSKNQVFLKIANVDTADTATYYCARIRGTWWYFDVWGTGTTVTVSS VL: QAVVTQESALTTSPGETVTLTCRSSTGAVTTSNYANWVQEKPDHLFTGLIGGTNNRAPGVPARFSGSLIGDKAALTITGAQTEDEAIYFCALWYSNQFIFGSGTKVTVL"
observation_type = "log10 of kon"
measured = 6.53

[[record]]
binder = "TA101 (antibody, V domains shown, Fc SEQ 587, CL SEQ 416) VH: DVQLVESGGGVARPGEFLRLSCAASGFTFRDYDMGWVRQAPGEGLEWVSSISVSGTTYYADSVKGRFTISRDNSENTLYLQMNSLTAEDTAVYYCGREDTLFHYWGLGTLVTVSS VL: QSVLTQPPSASGTPGQRVTISCSGSTSNIGTRYVYWYQQLPGTAPKLLIYKNLQRPSGVPDRFSGSKSGTSASLAISGLQSEDEADYYCAAWDERLNGWVFGGGTKLTVL"
observation_type = "log10 of kon"
measured = 5.83

[[record]]
binder = "TA132 (antibody, V domains shown, Fc SEQ 587, CL SEQ 416) VH: EVQLLESGGAFVQPGGSLRLSCAASGFTFSDYYMSWVRQAPGKGLEWVSVISNSGGSTYYTDSVKGRFTISRDNSKNTLYLQINSLRAEDTAVYYCTKDIGMTYFDYWGQGTLVTVSS VL: QSVLTQPPSASGAPGQRVTISCSGSYSNIGNSYVSWYQQLPGTAPKLLIYLNSQRPSGVPDRFSGSKSGTSASLAISGLQSEDEADYYCAAWDDLNVWVFGGGTKLTVL"
observation_type = "log10 of kon"
measured = 5.05

[[record]]
binder = "TA275 (antibody, V domains shown, Fc SEQ 587, CL SEQ 416) VH: QVTLKESGPGILQPSQTLSLTCSFSGFSLSTFGMGVGWIRQPSGKGLEWLAHIWWDDDKYYNPALKSRLTISKDTSKNQVFLKIANVDTADTATYYCARIPTRYWYFDVWGTGTTVTVSS VL: QAVVTQESALTTSPGETVTLTCRSSTGAVTTSNYANWVQEKPDHLFTGLIGGTNNRAPGVPARFSGSLIGDKAALTITGAQTEDEAIYFCALWYSTHYVFGGGTKVTVL"
observation_type = "log10 of kon"
measured = 5.52


Incoming: Can you look up the measured log10 of kon of TA102 (antibody, V domains shown, Fc SEQ 587, CL SEQ 416) VH: DVQLVESGGGVVRPGESLRLSCAASGFTFRNYDMTWVRQAPGEGLEWVATISGTDDTTYYADSVKGRATISRDNSNNTLYLRLFSLRAEDTAIYYCAREASNSFIDYWGLGTLVTVSS VL: QSVLTQPPSASGTPGQRVTISCSGSSSNIGRRYVYWYQQLPGTAPKLLIYRNFERPSGVPDRFSGSKSGTSASLAISGLQSEDEADYYCASWDESLNGWVFGGGTKLTVL for me?
Outgoing: 5.73

Just for reference, patent US20240368283A1 is where these values come from.
